- experimental system: human CD33 P40A (human, UniProt P20138 18-364)
- Sequence (P20138 18-364 P40A limits assumed): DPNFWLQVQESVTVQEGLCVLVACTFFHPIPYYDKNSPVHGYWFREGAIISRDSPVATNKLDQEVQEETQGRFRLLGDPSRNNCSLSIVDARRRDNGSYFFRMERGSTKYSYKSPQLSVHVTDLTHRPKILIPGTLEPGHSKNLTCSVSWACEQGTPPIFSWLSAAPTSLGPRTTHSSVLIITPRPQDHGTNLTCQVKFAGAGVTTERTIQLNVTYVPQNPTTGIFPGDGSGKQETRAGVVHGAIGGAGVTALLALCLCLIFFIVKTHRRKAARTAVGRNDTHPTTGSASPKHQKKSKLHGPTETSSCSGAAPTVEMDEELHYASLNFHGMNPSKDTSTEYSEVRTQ
- procedure details: alanine scan, flow cytometry;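 further: HEK293-T cells transiently expressing single-residue alanine mutants of CD33 (alanine swapped to serine), antibody binding read by fluorescence in duplicate, background-subtracted, expressed relative to wild-type CD33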
parameter: Mean % WT Binding (% WT)

- binder: "Refmab #4 (antibody, V domains shown, Full-length format is human IgG1 Fc silent (PG-LALA); The alanine scan used IgG or Fab) VH: QVQLVQSGAEVKKPGESVKVSCKASGYTFTNYGMNWVKQAPGQGLEWMGWINTYTGEPTYADKFQGRVTMTTDTSTSTAYMEIRNLGGDDTAVYYCARWSWSDGYYVYFDYWGQGTSVTVSS VL: DIVMTQSPDSLTVSLGERTTINCKSSQSVLDSSTNKNSLAWYQQKPGQPPKLLLSWASTRESGIPDRFSGSGSGTDFTLTIDSPQPEDSATYYCQQSAHFPITFGQGTRLEIK"
  endpoint value: 43
- binder: "Refmab #1 (antibody, V domains shown, Full-length format is human IgG1 (Absolute Antibody Ab00283-10.0); The alanine scan used IgG or Fab; also called hP67.6) VH: EVQLVQSGAEVKKPGSSVKVSCKASGYTITDSNIHWVRQAPGQSLEWIGYIYPYNGGTDYNQKFKNRATLTVDNPTNTAYMELSSLRSEDTAFYYCVNGNPWLAYWGQGTLVTVSS VL: DIQLTQSPSTLSASVGDRVTITCRASESLDNYGIRFLTWFQQKPGKAPKLLMYAASNQGSGVPSRFSGSGSGTEFTLTISSLQPDDFATYYCQQTKEVPWSFGQGTKVEVK"
  endpoint value: 74.5
- binder: "Refmab #3 (antibody, V domains shown, Full-length format is human IgG1 Fc silent (PG-LALA); The alanine scan used IgG or Fab) VH: QVQLVQSGAEVKKPGSSVKVSCKASGYTFTDYNMHWVRQAPGQGLEWIGYIYPYNGGTGYNQKFKSKATITADESTNTAYMELSSLRSEDTAVYYCARGRPAMDYWGQGTLVTVSS VL: DIQMTQSPSSLSASVGDRVTITCRASESVDNYGISFMNWFQQKPGKAPKLLIYAASNQGSGVPSRFSGSGSGTDFTLTISSLQPDDFATYYCQQSKEVPWTFGQGTKVEIK"
  endpoint value: 122
- binder: "Refmab #2 (antibody, V domains shown, Full-length format is human IgG1 Fc silent (PG-LALA); The alanine scan used IgG or Fab) VH: QVQLVQSGAEVKKPGSSVKVSCKASGGTFSDYAISWVRQAPGQGLEWMGRIIPILGVADYAQKFQGRVTITADKSTRTAYMELSSLRSEDTAVYYCARNWADAFDIWGQGTMVTVSS VL: DIQLTQSPSSLSASVGDRVTITCRASQGISSVLAWYQQKPGKAPKLLIYDASSLESGVPSRFSGSGSGTDFTLTISSLQPEDFATYYCQQFDSSITFGQGTKLEIK"
  endpoint value: 101
